Please provide measured pKd for the entries that follow.
Target: biotinylated human DLL3 protein expressed as a human IgG1 fusion protein (human) (UniProt Q9NYJ7)
Sequence (Q9NYJ7 27-492): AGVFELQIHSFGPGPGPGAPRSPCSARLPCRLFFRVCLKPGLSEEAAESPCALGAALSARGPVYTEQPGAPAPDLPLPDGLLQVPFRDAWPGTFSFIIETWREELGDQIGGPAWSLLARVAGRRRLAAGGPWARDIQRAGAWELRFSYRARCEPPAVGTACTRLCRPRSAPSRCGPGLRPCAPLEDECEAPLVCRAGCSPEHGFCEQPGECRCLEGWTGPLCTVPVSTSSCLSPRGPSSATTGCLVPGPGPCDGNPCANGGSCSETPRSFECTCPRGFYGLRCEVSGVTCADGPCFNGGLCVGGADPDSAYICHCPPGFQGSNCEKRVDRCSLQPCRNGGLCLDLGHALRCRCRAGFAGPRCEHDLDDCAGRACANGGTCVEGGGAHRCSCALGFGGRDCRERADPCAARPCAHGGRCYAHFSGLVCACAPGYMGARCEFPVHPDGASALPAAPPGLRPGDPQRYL
Test: Octet, biotinylated human DLL3-IgG1 fusion on streptavidin tips, single 50 nM, conditioned medium (relative KD)
The quantity pKd is defined as the negative base-10 logarithm of the molar concentration.

// pKd lookup, key: anti-DLL3 trispecific protein, DLL3 binder 4B08 (protein, part only; not given: CD3 fragment and albumin sdAb, part only) chain, part: EVQLVESGGGLVQPGGSLTLSCAASGSSVSFMSMAWYRQAPGKKRELVAGISADGSTDYIASVKGRFTISRDNAKNSVYLQMNSLRAEDTAVYYCYAYRWTTRSTYWGQGTLVTVSSGGGGSGGGSGGGGSGGGSHHHHHH
8.00

anti-DLL3 trispecific protein, DLL3 binder 1C08 (protein, part only; not given: CD3 fragment and albumin sdAb, part only) chain, part: EVQLVESGGGLVQPGGSLTLSCVASGSTSRINAMGWYRRAPGKQRELPAGISSDGSKVYAVSVKGRFTISRDNAKNSVYLQMNSLRAEDTAVYYCYYFRTVSGSPMRYWGQGTLVTVSSGGGGSGGGSGGGGSGGGSHHHHHH ?
7.60

Next record, please: anti-DLL3 trispecific protein, DLL3 binder 3B01 (protein, part only; not given: anti-CD3 fragment and anti-albumin sdAb, part only) chain, part: EVQLVESGGGLVQPGGSLTLSCAASGSSVSFLSMAWYRQAPGKKRELVAGISGDGSTDYIDSVKGRFTISRDNAKNSVYLQMNSLRAEDTAVYYCYAYRWTTRYTYWGQGTLVTVSSGGGGSGGGSGGGGSGGGSHHHHHH
8.00

Same for anti-DLL3 trispecific protein, DLL3 binder 2F06 (protein, part only; not given: CD3 fragment and albumin sdAb, part only) chain, part: EVQLVESGGGLVQPGGSLTLSCVASGSTSSINAYGWYRRAPGKQRELVAGISSDGSAVYADSVKGRFTISRDNAKNSVYLQMNSLRAEDTAVYYCYYFRTHSGSSMRYWGQGTLVTVSSGGGGSGGGSGGGGSGGGSHHHHHH
8.00

And anti-DLL3 trispecific protein, DLL3 binder 1G05 (protein, part only; not given: anti-CD3 fragment and anti-albumin sdAb, part only) chain, part: EVQLVESGGGLVQPGGSLTLSCVASGSTSSINAIGWYRRAPGKQRELVAGISSDGSKYYADSVKGRFTISRDNAKNSVYLQMNSLRAEDTAVYYCYYFRTVTGSSMRYWGQGTLVTVSSGGGGSGGGSGGGGSGGGSHHHHHH ?
7.85

// query: anti-DLL3 trispecific protein, DLL3 binder 3F08 (protein, part only; not given: CD3 fragment and albumin sdAb, part only) chain, part: EVQLVESGGGLVQPGGSLTLSCAASGSRVSFLSMAWYRQAPGKKRELVAGISADGSTLYIDSVKGRFTISRDNAKNSVYLQMNSLRAEDTAVYYCYAYRWHTRYTYWGQGTLVTVSSGGGGSGGGSGGGGSGGGSHHHHHH
7.85

// data source = patent US20200095340A1
